Attribution: patent US9084766B2

# protocol.summary: Phase I clinical trial: plasma pharmacokinetics
# Type: in vivo, human
# settings: human, plasma, oral, 2000 mg, total daily dose 2000 mg, BID dosing; read-out: AUC0-24
observable: AUC(0-t) (µM·h)
One number for each entry, in µM·h.

Entry CC(=O)c1cc2c(o1)C(=O)c1ccccc1C2=O [Compound 1] : reported AUC(0-t) = ?
39.1

----------
# Tested on: DU145
# protocol.summary: IC50 versus treatment time, DU145
# Format: cell-based
# settings: DU145 cancer cells, treatment time 12-24 h
pIC50: −log10 of the molar value.
observable: pIC50

Entry CC(=O)c1cc2c(o1)C(=O)c1ccccc1C2=O : reported pIC50 = ?
> 6.70

----------
# protocol.summary: Phase I clinical trial: plasma pharmacokinetics
# Type: in vivo, human
# settings: human, plasma, oral, patient 22, Fasting
observable: Tmax (h)
One number for each entry, in h.

Entry CC(=O)c1cc2c(o1)C(=O)c1ccccc1C2=O : reported Tmax = ?
8

----------
# protocol.summary: Phase I clinical trial: plasma pharmacokinetics
# Assay type: in vivo, human
# settings: human, plasma, oral, Fasting
observable: Cmax (nM)
Answers are plain numbers, in nM.

Entry CC(=O)c1cc2c(o1)C(=O)c1ccccc1C2=O : reported Cmax = ?
2010

----------
# protocol.summary: Phase I clinical trial: plasma pharmacokinetics
# Type: in vivo, human
# settings: human, plasma, oral, with Milk; read-out: AUC0-24 hrs
observable: AUC(0-t) (µM·h)
Answers are plain numbers, in µM·h.

Entry CC(=O)c1cc2c(o1)C(=O)c1ccccc1C2=O : reported AUC(0-t) = ?
31.4

----------
# protocol.summary: Phase I clinical trial: plasma pharmacokinetics
# Format: in vivo, human
# settings: human, plasma, oral, 80 mg, total daily dose 80 mg, BID dosing; read-out: AUC0-24
observable: AUC(0-t) (µM·h)
Numbers only, in µM·h.

Entry CC(=O)c1cc2c(o1)C(=O)c1ccccc1C2=O : reported AUC(0-t) = ?
7.95

----------
# protocol.summary: Phase I clinical trial: plasma pharmacokinetics
# Type: in vivo, human
# settings: human, plasma, oral, 800 mg, total daily dose 800 mg, BID dosing; read-out: AUC0-24
observable: AUC(0-t) (µM·h)
One number for each entry, in µM·h.

Entry CC(=O)c1cc2c(o1)C(=O)c1ccccc1C2=O : reported AUC(0-t) = ?
26.4

----------
# protocol.summary: Phase I clinical trial: plasma pharmacokinetics
# Type: in vivo, human
# settings: human, plasma, oral, patient 28, With Food
observable: Tmax (h)
Give bare numbers, in h.

Entry CC(=O)c1cc2c(o1)C(=O)c1ccccc1C2=O : reported Tmax = ?
10

----------
# System: CD34+ BM Erythroid
# protocol.summary: IC50 versus treatment time, CD34+ BM Erythroid
# Format: cell-based
# settings: normal cells CD34+ BM Erythroid, treatment time 12-24 h
# Protocol: The studies described herein discovered counter-intuitively that cancer cells and cancer stem cells requires much shorter exposure than normal cells to be killed by Compound 1. Normal cells can tolerate up to 24 hours of exposure to Compound 1. Furthermore, the studies here discovered that normal cells can recover after a short period of no-drug exposure, while cancer cells cannot recover once they are exposed to a certain concentration of the Compound 1 for at least 2 hours. […]
pIC50: −log10 of the molar value.
observable: pIC50

Entry CC(=O)c1cc2c(o1)C(=O)c1ccccc1C2=O : reported pIC50 = ?
< 4.52
